Recorded kon by entry
target: T1, recombinant C-terminally truncated RSV (A2 strain) F protein (RSV (A2 strain), UniProt P03420 26-524); test: SPR (BIAcore), IgG over immobilised F
T1 construct: extracellular domain; also called truncated F protein; extracellular domain of the F protein from RSV A2
T1 sequence (P03420 26-109, chain 1 of 2): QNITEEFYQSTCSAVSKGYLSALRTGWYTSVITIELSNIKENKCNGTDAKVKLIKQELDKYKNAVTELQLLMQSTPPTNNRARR
T1 sequence (P03420 137-524, chain 2 of 2): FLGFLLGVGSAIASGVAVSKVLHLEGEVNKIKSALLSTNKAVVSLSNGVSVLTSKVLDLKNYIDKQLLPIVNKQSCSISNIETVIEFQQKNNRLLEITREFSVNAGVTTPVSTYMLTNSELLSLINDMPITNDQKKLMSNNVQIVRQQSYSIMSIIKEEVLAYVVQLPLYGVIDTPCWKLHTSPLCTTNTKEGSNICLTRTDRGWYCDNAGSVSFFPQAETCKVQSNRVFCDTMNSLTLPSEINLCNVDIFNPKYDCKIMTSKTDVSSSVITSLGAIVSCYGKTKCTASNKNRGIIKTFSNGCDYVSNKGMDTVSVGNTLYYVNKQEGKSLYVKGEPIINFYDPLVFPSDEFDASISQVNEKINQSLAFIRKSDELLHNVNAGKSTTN

# BINDER, kon [M⁻¹ s⁻¹]
measured = [
    ("AFFY IgG (antibody, name in Kabat numbering, V domains shown) VH: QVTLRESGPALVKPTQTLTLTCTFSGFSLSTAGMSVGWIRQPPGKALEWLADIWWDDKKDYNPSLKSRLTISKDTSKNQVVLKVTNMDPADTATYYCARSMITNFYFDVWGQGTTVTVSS VL: DIQMTQSPSTLSASVGDRVTITCSASSSVGYMHWYQQKPGKAPKLLIYDTFKLASGVPSRFSGSGSGTEFTLTISSLQPDDFATYYCFQGSYYPFTFGGGTKVEIK", 144000),
    ("AFSF IgG (antibody, name in Kabat numbering, V domains shown) VH: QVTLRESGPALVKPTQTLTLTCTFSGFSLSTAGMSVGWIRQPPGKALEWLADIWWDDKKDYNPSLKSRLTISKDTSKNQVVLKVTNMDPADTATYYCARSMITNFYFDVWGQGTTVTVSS VL: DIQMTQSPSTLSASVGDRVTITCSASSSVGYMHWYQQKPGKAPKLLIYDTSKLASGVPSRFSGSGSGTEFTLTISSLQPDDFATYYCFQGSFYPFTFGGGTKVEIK", 147000),
    ("AFFG IgG (antibody, name in Kabat numbering, V domains shown) VH: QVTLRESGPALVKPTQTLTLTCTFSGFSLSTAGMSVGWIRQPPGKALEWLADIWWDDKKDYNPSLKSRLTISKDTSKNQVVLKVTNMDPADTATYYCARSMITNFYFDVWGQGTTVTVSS VL: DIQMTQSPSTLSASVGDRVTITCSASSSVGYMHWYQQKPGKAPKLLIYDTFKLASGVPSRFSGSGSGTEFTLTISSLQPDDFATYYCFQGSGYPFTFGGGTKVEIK", 147000),
    ("AFFF(1) IgG (antibody, V domains shown) VH: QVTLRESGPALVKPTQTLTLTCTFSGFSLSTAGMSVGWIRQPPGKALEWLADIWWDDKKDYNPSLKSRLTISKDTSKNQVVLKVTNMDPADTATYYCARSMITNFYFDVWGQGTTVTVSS VL: DIQMTQSPSTLSASVGDRVTITCSASSSVGYMHWYQQKPGKAPKLLIYDTFKLASGVPSRFSGSGSGTEFTLTISSLQPDDFATYYCFQGSFYPFTFGGGTKVEIKR", 127000),
]

Data provenance is patent US20110158985A1.
